# Measurement description: Terminal elimination half life in Sprague-Dawley rat at 18.6 mg/kg, po by LC-MS analysis
# Type: ADME, organism-based
# Set-up: dose 18.6 mg/kg, route oral
# Stated conditions: in vivo, read-out: beta t1/2 (converted)
Quantity: half-life (h)

>>> df
                            chemical_string   quantity  obs_value
0  Cc1cc(Nc2cc(F)c(C(F)(F)F)c(F)c2)n2ncnc2n1  half-life       17.6

* * *

# Test system: Liver
# Measurement description: Intrinsic clearance in mouse liver microsome assessed per mg of protein at 1 uM after 60 mins by LC-MS analysis
# Type: ADME
# Stated conditions: microsomes, 1 h
Attribute: CL
Quantity: CL (µL/min/mg)

In [3]: df
Out[3]:
                            chemical_string  relation  obs_value
0    Cc1cc(Nc2ccc(C(C)(C)C)c(F)c2)n2ncnc2n1         =         68
1  Cc1cc(Nc2ccc(S(F)(F)(F)(F)F)cc2)n2ncnc2n1         <          6
2          Cc1cc(Nc2ccc(C(C)C)cc2)n2ncnc2n1         =        241
3            Cc1cc(NC2Cc3ccccc3C2)n2ncnc2n1         =         32
4  Cc1cc(Nc2cc(F)c(C(F)(F)F)c(F)c2)n2ncnc2n1         <          6
5          Cc1cc(Nc2ccc(C3CC3)cc2)n2ncnc2n1         =        287
